System: TA1537 strain of Salmonella typhimurium
method: Mutagenicity assay in TA1537 strain
measurement_parameters: Salmonella typhimurium TA1537, at the D50
Catalogue of Mutagenicity M50 (percentage mutation frequency at the D50 (×10^4)) readings, one per entry.

INSERT INTO assay_data (compound, measurement) VALUES
  ('CNC(=O)c1ccc2c(Nc3ccc(NS(C)(=O)=O)cc3OC)c3cccc(C)c3nc2c1 [Compound 4]', '0.16 % (×10^4)'),
  ('COc1cc(NS(C)(=O)=O)ccc1Nc1c2ccc(Cl)cc2nc2c(C(=O)NCC(N)=O)cccc12 [Compound 3]', '0 % (×10^4)'),
  ('COc1cc(NS(C)(=O)=O)ccc1Nc1c2ccc(C)cc2nc2c(C(=O)NCC(N)=O)cccc12 [Compound 2]', '0 % (×10^4)');

Fill in: Mutagenicity M50 (percentage mutation frequency at the D50 (×10^4)) of CNC(=O)c1cccc2c(Nc3ccc(NS(C)(=O)=O)cc3OC)c3ccc(C)cc3nc12 [Compound 1] is ___ 1.0 % (×10^4)
